Documented CC50 at 24 h across a set of molecules
- test_description: MTT cell viability (cytotoxicity) on normal human primary fibroblast C3PV
- Format: cell-based
- assay_context: C3PV normal primary fibroblast cells, 24 h treatment, triplicate, read-out: CC50±SD C3PV
Report only the number, with the unit µM understood.

molecule_smiles	CC50 at 24 h, µM
C[C@H]1[C@H](OC(=O)CCC(=O)O)O[C@@H]2O[C@@]3(C)CC[C@H]4[C@H](C)CC[C@@H]1[C@@]24OO3	1.68

Now for another entry.
According to the records, this molecule "C[C@H]1[C@H](OC(=O)CCC(=O)O[C@@H]2O[C@@H]3O[C@@]4(C)CC[C@H]5[C@H](C)CC[C@@H]([C@H]2C)[C@@]35OO4)O[C@@H]2O[C@@]3(C)CC[C@H]4[C@H](C)CC[C@@H]1[C@@]24OO3" displays CC50 at 24 h of 0.25
